experiment: Acute toxicity; conditions: mouse, in vivo; male SCL-ICR mice, single shot, lethality at 1 week; route not given
Please provide measured LD50 at 168 h for the entries that follow.

Sure, the documented LD50 at 168 h for O=C1CCC(C(=O)OCc2ccc(Cl)cc2)N1 (stereo not shown) is > 2590 mg/kg

response.value for O=C1CCC(C(=O)OCc2ccncc2)N1 (stereo not shown) (field: LD50 at 168 h) = > 2590 mg/kg

So for O=C1CCC(C(=O)OCCc2ccccn2)N1 (stereo not shown) , the logged LD50 at 168 h turned out to be > 2590 mg/kg

For O=C1CCC(C(=O)OCc2cccnc2)N1 (stereo not shown) the compound record lists LD50 at 168 h as > 2590 mg/kg

Recorded LD50 at 168 h (compound O=C1CCC(C(=O)OCCCc2ccccn2)N1 (stereo not shown) ): < 1250 mg/kg

For reference, reported LD50 at 168 h for O=C1CCC(C(=O)OCc2ccccn2)N1 (stereo not shown) stands at 1540 mg/kg

Briefly, LD50 at 168 h measured for O=C1CCC(C(=O)NCc2ccccn2)N1 (stereo not shown) : > 2590 mg/kg
